inhibition overview
TARGET_ENTITY: MAP/microtubule affinity-regulating kinase 4 (Homo sapiens);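 note: reported value is a mean MARK4 inhibition at 1 µM, taken from the GSK PKIS screening set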
COND: at 1 µM
# unit: % | format: bare number

Solved entries (count: 5):
{"SUBSTANCE_SMILES": "CCOc1nccc2c1nc(-c1nonc1N)n2CC", "TARGET_ENTITY": "MAP/microtubule affinity-regulating kinase 4 (Homo sapiens)", "UOM": "%", "inhibition": 5.45}
{"SUBSTANCE_SMILES": "Cc1ccc2c(-c3ccnc(Nc4ccc5c(c4)OCCO5)n3)c(-c3ccc(C(F)(F)F)cc3)nn2n1", "TARGET_ENTITY": "MAP/microtubule affinity-regulating kinase 4 (Homo sapiens)", "UOM": "%", "inhibition": 3.07}
{"SUBSTANCE_SMILES": "CCS(=O)(=O)c1ccc(OC)c(Nc2nccc(N(C)c3ccc4c(C)n[nH]c4c3)n2)c1", "TARGET_ENTITY": "MAP/microtubule affinity-regulating kinase 4 (Homo sapiens)", "UOM": "%", "inhibition": 3.51}
{"SUBSTANCE_SMILES": "Cc1ccc(Nc2ccnc(Nc3cccc(C(N)=O)c3)n2)cc1O", "TARGET_ENTITY": "MAP/microtubule affinity-regulating kinase 4 (Homo sapiens)", "UOM": "%", "inhibition": 6.22}
{"SUBSTANCE_SMILES": "COC(=O)c1cncc(/C=C/c2c(C)cc(O)cc2C)c1", "TARGET_ENTITY": "MAP/microtubule affinity-regulating kinase 4 (Homo sapiens)", "UOM": "%", "inhibition": 0.82}

Lookup: inhibition lookup needed for NS(=O)(=O)c1ccc(-c2cc3ccncc3cc2OCc2ccccc2)cc1 , thanks.
Found: 1.99

Lookup: Any idea what its inhibition is? The compound is COc1cc(Nc2nccc(-c3cnn4ncccc34)n2)cc(OC)c1
Found: 22.1

Lookup: Given the compound CN(C)C(=O)O[C@H]1CN[C@H](C#Cc2cc3ncnc(Nc4ccc(OCc5cccc(F)c5)c(Cl)c4)c3s2)C1 , what is its reported inhibition?
Found: 1.72
